Data credit: ChEMBL document CHEMBL4627331

Items are presented alongside their recorded inhibition at 100 µM.
# experimental target: acetylcholinesterase (AChE) (Electrophorus electricus)
# Sequence (O42275 whole entry): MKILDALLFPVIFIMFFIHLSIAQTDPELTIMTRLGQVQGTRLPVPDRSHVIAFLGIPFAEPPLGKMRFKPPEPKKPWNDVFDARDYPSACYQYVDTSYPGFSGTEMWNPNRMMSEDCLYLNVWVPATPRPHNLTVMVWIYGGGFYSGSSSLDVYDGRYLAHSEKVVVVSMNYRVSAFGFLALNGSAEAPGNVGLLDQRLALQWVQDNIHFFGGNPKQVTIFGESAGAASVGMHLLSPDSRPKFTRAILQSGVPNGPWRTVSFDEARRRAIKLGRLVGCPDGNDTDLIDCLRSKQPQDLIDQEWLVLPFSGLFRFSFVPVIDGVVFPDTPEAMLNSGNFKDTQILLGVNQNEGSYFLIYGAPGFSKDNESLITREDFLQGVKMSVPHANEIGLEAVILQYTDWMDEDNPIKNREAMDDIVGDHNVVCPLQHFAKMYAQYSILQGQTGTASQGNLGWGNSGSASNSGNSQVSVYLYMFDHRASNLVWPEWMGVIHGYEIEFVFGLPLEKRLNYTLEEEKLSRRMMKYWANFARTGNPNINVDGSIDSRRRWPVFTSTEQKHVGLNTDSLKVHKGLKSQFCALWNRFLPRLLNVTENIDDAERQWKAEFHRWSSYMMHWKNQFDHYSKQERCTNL
# assay remarks: Inhibition of electric eel AchE at 100 uM using acetylthiocholine as substrate by Ellman's method relative to control
# assay conditions: electric eel AChE enzyme, probe acetylthiocholine
Lab book: enter the figure in %, no units written.

CN1C2=C(C(=O)CCC2)C(c2ccc(OCc3ccc(Cl)cc3)c(Cl)c2)C2=C1CCCC2=O 23
O=C1CCCC2=C1C(c1ccc(OCc3ccccc3)c(Br)c1)C1=C(CCCC1=O)N2 14
CCOc1cc(C2C3=C(CCCC3=O)NC3=C2C(=O)CCC3)ccc1OCc1ccccc1 19
O=C1CCCC2=C1C(c1ccc(OCc3cccc(F)c3)c(Br)c1)C1=C(CCCC1=O)N2 22

Below: the item to evaluate.
Return reported inhibition at 100 µM; argument: O=C1CCCC2=C1C(c1ccc(OCc3ccccc3)cc1)C1=C(CCCC1=O)N2
24
